Test system: Pasteurella multocida 22A
Assay: MIC, conventional broth-dilution microtiter test
Format: cell-based
Details: broth-dilution microtiter; Pasteurella multocida 22A; read-out: MIC
# label = 1 (yes) if MIC < 10 mg/L else 0 (no)

Molecule: CCC1CC(C)C(=O)C=CC(C)=CC(COc2cccc(N(C)C)c2)C(CC)OC(=O)CC(O)C(C)C1OC1OC(C)C(O)C(N(C)C)C1O (stereo not drawn) [Compound 44]
Tested on: Pasteurella multocida 22A
Class name: 0 (no)

Molecule: CCC1OC(=O)CC(O)C(C)C(OC2OC(C)C(O)C(N(C)C)C2O)C(CCN2C(=O)c3ccccc3C2=O)CC(C)C(=O)C=CC(C)=CC1CO (stereo not drawn) [Compound 6, 20-N-Phthalimido-20-deoxy-20-dihydro-OMT]
Tested on: Pasteurella multocida 22A
Class name: 0 (no)

Molecule: CCC1OC(=O)CC(O)C(C)C(OC2OC(C)C(OC3CC(C)(O)C(O)C(C)O3)C(N(C)C)C2O)C(CCN2C(=O)c3ccccc3C2=O)CC(C)C(=O)C=CC(C)=CC1CO (stereo not drawn) [Compound 17, 20-N-Phthalimido-20-deoxy-20-dihydro-DMT]
Tested on: Pasteurella multocida 22A
Class name: 0 (no)

Molecule: CCC1OC(=O)CC(O)C(C)C(OC2OC(C)C(OC3CC(C)(O)C(O)C(C)O3)C(N(C)C)C2O)C(CCN2C(=O)c3ccccc3C2=O)CC(C)C(=O)C=CC(C)=CC1C (stereo not drawn) [Compound 26]
Tested on: Pasteurella multocida 22A
Class name: 0 (no)

Molecule: CCC1CC(C)C(=O)C=CC(C)=CC(CN2CCCCCCC2)C(CC)OC(=O)CC(O)C(C)C1OC1OC(C)C(OC(C)=O)C(N(C)C)C1OC(C)=O (stereo not drawn) [Compound 57]
Tested on: Pasteurella multocida 22A
Class name: 1 (yes)

Molecule: CCC1OC(=O)CC(O)C(C)C(OC2OC(C)C(O)C(N(C)C)C2O)C(CCN(C)C)CC(C)C(=O)C=CC(C)=CC1CO (stereo not drawn) [Compound 2]
Tested on: Pasteurella multocida 22A
Class name: 0 (no)

Molecule: CCC1OC(=O)CC(O)C(C)C(OC2OC(C)C(O)C(N(C)C)C2O)C(CCN2C(=O)c3ccccc3C2=O)CC(C)C(=O)C=CC(C)=CC1C (stereo not drawn) [Compound 22]
Tested on: Pasteurella multocida 22A
Class name: 0 (no)

Molecule: CCC1CC(C)C(=O)C=CC(C)=CC(CSc2ccccc2)C(CC)OC(=O)CC(O)C(C)C1OC1OC(C)C(O)C(N(C)C)C1O (stereo not drawn) [Compound 42]
Tested on: Pasteurella multocida 22A
Class name: 0 (no)

Molecule: CCC1OC(=O)CC(O)C(C)C(OC2OC(C)C(OC3CC(C)(O)C(O)C(C)O3)C(N(C)C)C2O)C(CCNCc2ccccc2)CC(C)C(=O)C=CC(C)=CC1C (stereo not drawn) [Compound 25]
Tested on: Pasteurella multocida 22A
Class name: 0 (no)

Molecule: CCC1OC(=O)CC(O)C(C)C(OC2OC(C)C(O)C(N(C)C)C2O)C(CCN2C(=O)c3ccccc3C2=O)CC(C)C(=O)C=CC(C)=CC1CN1C(=O)c2ccccc2C1=O (stereo not drawn) [Compound 31]
Tested on: Pasteurella multocida 22A
Class name: 0 (no)

Molecule: CCC1OC(=O)CC(O)C(C)C(OC2OC(C)C(O)C(N(C)C)C2O)C(CCO)CC(C)C(=O)C=CC(C)=CC1CN1CCCCCCC1 (stereo not drawn) [Compound 58]
Tested on: Pasteurella multocida 22A
Class name: 1 (yes)

Molecule: CCC1OC(=O)CC(O)C(C)C(OC2OC(C)C(O)C(N(C)C)C2O)C(CCNC)CC(C)C(=O)C=CC(C)=CC1CO (stereo not drawn) [Compound 3, 20-N-Methylamino-20-deoxy-20-dihydro-OMT]
Tested on: Pasteurella multocida 22A
Class name: 0 (no)

Molecule: CCC1OC(=O)CC(O)C(C)C(OC2OC(C)C(OC3CC(C)(O)C(O)C(C)O3)C(N(C)C)C2O)C(CCN2C(=O)c3ccccc3C2=O)CC(C)C(=O)C=CC(C)=CC1CN1C(=O)c2ccccc2C1=O (stereo not drawn) [Compound 38]
Tested on: Pasteurella multocida 22A
Class name: 0 (no)

Molecule: CCC1CC(C)C(=O)C=CC(C)=CC(COc2cccnc2)C(CC)OC(=O)CC(O)C(C)C1OC1OC(C)C(O)C(N(C)C)C1O (stereo not drawn) [Compound 46, 23-O-(3-Pyridyl)-20-deoxy-20-dihydro-OMT]
Tested on: Pasteurella multocida 22A
Class name: 0 (no)

Molecule: CCC1OC(=O)CC(O)C(C)C(OC2OC(C)C(O)C(N(C)C)C2O)C(CCNCc2ccccc2)CC(C)C(=O)C=CC(C)=CC1CO (stereo not drawn) [Compound 4, 20-N-Benzylamino-20-deoxy-20-dihydro-OMT]
Tested on: Pasteurella multocida 22A
Class name: 0 (no)

Molecule: CCC1OC(=O)CC(O)C(C)C(OC2OC(C)C(OC3CC(C)(O)C(O)C(C)O3)C(N(C)C)C2O)C(CCNCCc2ccccc2)CC(C)C(=O)C=CC(C)=CC1CO (stereo not drawn) [Compound 16]
Tested on: Pasteurella multocida 22A
Class name: 0 (no)

Molecule: CCC1CC(C)C(=O)C=CC(C)=CC(COC(C)=O)C(CC)OC(=O)CC(O)C(C)C1OC1OC(C)C(OC(C)=O)C(N(C)C)C1OC(C)=O (stereo not drawn) [Compound 40]
Tested on: Pasteurella multocida 22A
Class name: 0 (no)

Molecule: CCC1OC(=O)CC(O)C(C)C(OC2OC(C)C(O)C(N(C)C)C2O)C(CCNCCc2ccccc2)CC(C)C(=O)C=CC(C)=CC1CO (stereo not drawn) [Compound 5]
Tested on: Pasteurella multocida 22A
Class name: 1 (yes)

* * *

Tested on: Mycoplasma synoviae
Assay: MIC, conventional broth-dilution microtiter test
Type: cell-based
Conditions: Mycoplasmopsis synoviae; broth-dilution microtiter; Mycoplasma synoviae; read-out: MIC
Catalogue of MIC values

Compound: CCC1OC(=O)CC(O)C(C)C(OC2OC(C)C(O)C(N(C)C)C2O)C(CCNCc2ccccc2)CC(C)C(=O)C=CC(C)=CC1CO (centres unmarked) [Compound 4, 20-N-Benzylamino-20-deoxy-20-dihydro-OMT]
Tested on: Mycoplasma synoviae
MIC: 12.5 µg/mL
//
Compound: CCC1OC(=O)CC(O)C(C)C(OC2OC(C)C(OC3CC(C)(O)C(O)C(C)O3)C(N(C)C)C2O)C(CCNCCc2ccccc2)CC(C)C(=O)C=CC(C)=CC1CO (centres unmarked)
Tested on: Mycoplasma synoviae
MIC: 6.25 µg/mL
//
Compound: CCC1CC(C)C(=O)C=CC(C)=CC(CN2CCCCCCC2)C(CC)OC(=O)CC(O)C(C)C1OC1OC(C)C(O)C(N(C)C)C1O (centres unmarked)
Tested on: Mycoplasma synoviae
MIC: > 50 µg/mL
//
Compound: CCC1OC(=O)CC(O)C(C)C(OC2OC(C)C(O)C(N(C)C)C2O)C(CCO)CC(C)C(=O)C=CC(C)=CC1CN1CCCCCCC1 (centres unmarked)
Tested on: Mycoplasma synoviae
MIC: 6.25 µg/mL
//
Compound: CCC1CC(C)C(=O)C=CC(C)=CC(COc2cccnc2)C(CC)OC(=O)CC(O)C(C)C1OC1OC(C)C(O)C(N(C)C)C1O (centres unmarked) [Compound 46, 23-O-(3-Pyridyl)-20-deoxy-20-dihydro-OMT]
Tested on: Mycoplasma synoviae
MIC: 6.25 µg/mL
//
Compound: CCC1OC(=O)CC(O)C(C)C(OC2OC(C)C(O)C(N(C)C)C2O)C(CCNC)CC(C)C(=O)C=CC(C)=CC1CO (centres unmarked) [Compound 3, 20-N-Methylamino-20-deoxy-20-dihydro-OMT]
Tested on: Mycoplasma synoviae
MIC: 25 µg/mL
//
Compound: CCC1OC(=O)CC(O)C(C)C(OC2OC(C)C(O)C(N(C)C)C2O)C(CCN(C)C)CC(C)C(=O)C=CC(C)=CC1CO (centres unmarked)
Tested on: Mycoplasma synoviae
MIC: > 50 µg/mL
//
Compound: CCC1CC(C)C(=O)C=CC(C)=CC(COc2cccc(OC)c2OC)C(CC)OC(=O)CC(O)C(C)C1OC1OC(C)C(O)C(N(C)C)C1O (centres unmarked)
Tested on: Mycoplasma synoviae
MIC: 6.25 µg/mL
//
Compound: CCC1OC(=O)CC(O)C(C)C(OC2OC(C)C(O)C(N(C)C)C2O)C(CCOc2ccccc2)CC(C)C(=O)C=CC(C)=CC1CN1CCCCCCC1 (centres unmarked)
Tested on: Mycoplasma synoviae
MIC: 12.5 µg/mL
//
Compound: CCC1OC(=O)CC(O)C(C)C(OC2OC(C)C(O)C(N(C)C)C2O)C(CCNCCc2ccccc2)CC(C)C(=O)C=CC(C)=CC1CO (centres unmarked)
Tested on: Mycoplasma synoviae
MIC: 3.12 µg/mL
//
Compound: CCC1CC(C)C(=O)C=CC(C)=CC(COc2cccc(N(C)C)c2)C(CC)OC(=O)CC(O)C(C)C1OC1OC(C)C(O)C(N(C)C)C1O (centres unmarked)
Tested on: Mycoplasma synoviae
MIC: 12.5 µg/mL
